Tested on: 648629-189-R-J1-PDC spheroids with HUVEC/MSC, viability
Experiment: Anticancer human tumor 648629-189-R-J1-PDC patient-derived bladder carcinoma cell line growth inhibition [PI3K]
Condition label: second compound 0.01 µM; first compound 0.0316 µM; stronger effect = lower value
Result type: viability, T/C (%)
Dear colleague, please return just the value in %, with no unit written.

Solved entries:
C=CC(=O)N1CCN(c2nc(=O)n(-c3c(C)ccnc3C(C)C)c3nc(-c4c(O)cccc4F)c(F)cc23)C(C)C1 (stereo not given) + COc1c(OCCCN2CCOCC2)ccc2c3n(c(=NC(=O)c4cnc(N)nc4)nc12)CCN3 :: 94.3
CCN1CCN(Cc2ccc(Nc3ncc(F)c(-c4cc(F)c5nc(C)n(C(C)C)c5c4)n3)nc2)CC1 + CC(Nc1ccc2c(c1)OCCn1cc(N3C(=O)OCC3C(F)F)nc1-2)C(N)=O :: 110
CC(C)n1nc(-c2ccc3oc(N)nc3c2)c2c(N)ncnc21 + COc1c(OCCCN2CCOCC2)ccc2c3n(c(=NC(=O)c4cnc(N)nc4)nc12)CCN3 :: 62.4

Request the reported viability, T/C associated with C[C@@H](NC(=O)c1ncnc(N)c1Cl)c1ncc(C(=O)Nc2cc(C(F)(F)F)c(Cl)cn2)s1 + CC(Nc1ccc2c(c1)OCCn1cc(N3C(=O)OCC3C(F)F)nc1-2)C(N)=O
111

Request the reported viability, T/C associated with CC(Cn1ccc(-c2ccc(C#N)c(Cl)c2)n1)NC(=O)c1cc(C(C)O)[nH]n1 (stereo not given) + CC(Nc1ccc2c(c1)OCCn1cc(N3C(=O)OCC3C(F)F)nc1-2)C(N)=O
92.7

###

System: 648629-189-R-J1-PDC spheroids with HUVEC/MSC, viability
Experiment: Anticancer human tumor 648629-189-R-J1-PDC cell line growth inhibition [PI3K];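 also: spheroids exposed to agents for seven days before reading; percent of vehicle control luminescence where 100% = DMSO treated spheroids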
Condition label: second compound 0.01 µM; first compound 0.0316 µM; stronger effect = lower value
Result type: viability, T/C (%)
Dear colleague, please return just the value in %, with no unit written.

Solved entries:
CC1(C)CCC(Nc2ncc(C(F)(F)F)c(-c3c[nH]c4c(P(C)(C)=O)c(C#N)ccc34)n2)CN1 (centres undefined) + COc1c(OCCCN2CCOCC2)ccc2c3n(c(=NC(=O)c4cnc(N)nc4)nc12)CCN3 :: 28.9
CC(=O)c1c(C)c2cnc(Nc3ccc(N4CCNCC4)cn3)nc2n(C2CCCC2)c1=O + COc1c(OCCCN2CCOCC2)ccc2c3n(c(=NC(=O)c4cnc(N)nc4)nc12)CCN3 :: 103

Request the reported viability, T/C associated with Cn1nccc1Nc1nccc(-c2ccn(C(CO)c3ccc(Cl)c(F)c3)c(=O)c2)n1 (centres undefined) + CC(Nc1ccc2c(c1)OCCn1cc(N3C(=O)OCC3C(F)F)nc1-2)C(N)=O
111

Request the reported viability, T/C associated with CNC(=O)c1ccc(N2C(=S)N(c3ccc(C#N)c(C(F)(F)F)c3)C(=O)C2(C)C)cc1F + CC(Nc1ccc2c(c1)OCCn1cc(N3C(=O)OCC3C(F)F)nc1-2)C(N)=O
99.6

Request the reported viability, T/C associated with C=CC(=O)N1CCN(c2nc(=O)n(-c3c(C)ccnc3C(C)C)c3nc(-c4c(O)cccc4F)c(F)cc23)C(C)C1 (centres undefined) + CC(Nc1ccc2c(c1)OCCn1cc(N3C(=O)OCC3C(F)F)nc1-2)C(N)=O
121

Request the reported viability, T/C associated with CC(C)NCC(C(=O)N1CCN(c2ncnc3c2C(C)CC3O)CC1)c1ccc(Cl)cc1 (centres undefined) + CC(Nc1ccc2c(c1)OCCn1cc(N3C(=O)OCC3C(F)F)nc1-2)C(N)=O
95.5

Request the reported viability, T/C associated with CCCS(=O)(=O)Nc1ccc(F)c(C(=O)c2c[nH]c3ncc(-c4ccc(Cl)cc4)cc23)c1F + COc1c(OCCCN2CCOCC2)ccc2c3n(c(=NC(=O)c4cnc(N)nc4)nc12)CCN3
89.8

Request the reported viability, T/C associated with CC1(C)CCC(CN2CCN(c3ccc(C(=O)NS(=O)(=O)c4ccc(NCC5CCOCC5)c([N+](=O)[O-])c4)c(Oc4cnc5[nH]ccc5c4)c3)CC2)=C(c2ccc(Cl)cc2)C1 + COc1c(OCCCN2CCOCC2)ccc2c3n(c(=NC(=O)c4cnc(N)nc4)nc12)CCN3
104

Request the reported viability, T/C associated with C#Cc1c(F)ccc2cc(O)cc(-c3ncc4c(N5CC6CCC(C5)N6)nc(OCC56CCCN5CC(F)C6)nc4c3F)c12 (centres undefined) + COc1c(OCCCN2CCOCC2)ccc2c3n(c(=NC(=O)c4cnc(N)nc4)nc12)CCN3
112

Request the reported viability, T/C associated with CC(C)n1nc(-c2ccc3oc(N)nc3c2)c2c(N)ncnc21 + CC(Nc1ccc2c(c1)OCCn1cc(N3C(=O)OCC3C(F)F)nc1-2)C(N)=O
74.3

Request the reported viability, T/C associated with CCCS(=O)(=O)Nc1ccc(F)c(C(=O)c2c[nH]c3ncc(-c4ccc(Cl)cc4)cc23)c1F + CC(Nc1ccc2c(c1)OCCn1cc(N3C(=O)OCC3C(F)F)nc1-2)C(N)=O
112
